From: patent US11667621B2

- target: CRISPR KI Y537S (Homo sapiens, UniProt P03372, Y537S)
- Construct: endogenous in cells; host or cells: CRISPR knock-in clones (cl. 4, cl. 24)
- Sequence (P03372 1-595 Y537S): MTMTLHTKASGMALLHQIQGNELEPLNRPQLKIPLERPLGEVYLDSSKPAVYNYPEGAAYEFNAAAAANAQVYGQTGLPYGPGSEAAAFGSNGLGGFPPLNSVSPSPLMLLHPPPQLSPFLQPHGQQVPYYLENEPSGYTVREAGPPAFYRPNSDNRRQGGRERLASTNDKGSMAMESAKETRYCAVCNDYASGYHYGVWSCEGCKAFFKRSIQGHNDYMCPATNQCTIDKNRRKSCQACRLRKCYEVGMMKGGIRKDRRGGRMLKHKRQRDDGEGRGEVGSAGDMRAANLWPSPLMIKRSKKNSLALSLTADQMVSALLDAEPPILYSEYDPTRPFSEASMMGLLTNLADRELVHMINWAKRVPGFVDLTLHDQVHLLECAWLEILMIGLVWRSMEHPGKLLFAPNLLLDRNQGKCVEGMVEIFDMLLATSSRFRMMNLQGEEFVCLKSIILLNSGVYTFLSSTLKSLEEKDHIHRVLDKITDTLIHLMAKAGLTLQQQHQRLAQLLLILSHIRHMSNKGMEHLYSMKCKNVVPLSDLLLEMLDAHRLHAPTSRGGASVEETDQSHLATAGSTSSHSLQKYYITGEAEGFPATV
- test_protocol: Luciferase assay, CRISPR KI Y537S clones
- Type: cell-based
- Parameters: concentration or dose not given beside the values
- details: clone 24
Assign CRISPR KI (% Inhibition) Y537S cl. 24 to each entry below.
Give bare numbers, in %.

O=C(NCCCCOc1ccc(C(=C2C3CC4CC(C3)CC2C4)c2ccc(O)cc2)cc1)C1CCC1    −496
O=C(NCCCCOc1ccc(C(=C2C3CC4CC(C3)CC2C4)c2ccc(O)cc2)cc1)C12CC3CC(CC1C3)C2    −249
O=C(NCCCCOc1ccc(C(=C2C3CC4CC(C3)CC2C4)c2ccc(O)cc2)cc1)C1CCC(F)(F)CC1    −327
O=C(NCCCCOc1ccc(C(=C2C3CC4CC(C3)CC2C4)c2ccc(O)cc2)cc1)[C@H]1C[C@@H]2C=C[C@H]1C2    −384
CC(C)(C)OC(=O)N[C@@H](Cc1c[nH]c2ccccc12)C(=O)NCCCCOc1ccc(C(=C2C3CC4CC(C3)CC2C4)c2ccc(O)cc2)cc1    −34

# input for lookup
Value lookup for CRISPR KI (% Inhibition) Y537S cl. 24; key = "O=C(NCCCCOc1ccc(C(=C2C3CC4CC(C3)CC2C4)c2ccc(O)cc2)cc1)C1CCCCCC1" −199

====

- target: CRISPR KI D538G (Homo sapiens, UniProt P03372, D538G)
- Construct: endogenous in cells; host or cells: CRISPR knock-in clones (cl. 50, cl. 65)
- test_protocol: Luciferase assay, CRISPR KI D538G clones
- Format: cell-based
- details: clone 50
result_type: CRISPR KI (% Inhibition) D538G cl. 50
Please answer using the number first and the unit second.

Take a look at these entries with their results.
O=C(NCCCCOc1ccc(C(=C2C3CC4CC(C3)CC2C4)c2ccc(O)cc2)cc1)C1CCCCCC1    36%
O=C(NCCCCOc1ccc(C(=C2C3CC4CC(C3)CC2C4)c2ccc(O)cc2)cc1)C1CCCCC1    74%
O=C(NCCCCOc1ccc(C(=C2C3CC4CC(C3)CC2C4)c2ccc(O)cc2)cc1)[C@H]1C[C@@H]2C=C[C@H]1C2    34%
O=C(NCCCCOc1ccc(C(=C2C3CC4CC(C3)CC2C4)c2ccc(O)cc2)cc1)C1CCC(F)(F)CC1    32%
O=C(NCCCCOc1ccc(C(=C2C3CC4CC(C3)CC2C4)c2ccc(O)cc2)cc1)[C@H]1CC[C@H](C(F)(F)F)CC1    67%

// batch mode: one CRISPR KI (% Inhibition) D538G cl. 50 value per listed entry
1. O=C(NCCCCOc1ccc(C(=C2C3CC4CC(C3)CC2C4)c2ccc(O)cc2)cc1)C1CCC1
2. O=C(NCCCCOc1ccc(C(=C2C3CC4CC(C3)CC2C4)c2ccc(O)cc2)cc1)C12CC3CC(CC(C3)C1)C2

1: 19%; 2: 68%

====

- target: HA-ERα L536R (Homo sapiens, UniProt P03372, L536R)
- Construct: HA; expressed in transfected cells
- test_protocol: Luciferase assay, overexpressed ER (3×-ERE-TATA-Luciferase reporter)
- Type: cell-based
- details: compound concentration 1 μM, 24 hours
Assign inhibition at 1 µM to each entry below.
One number for each entry, in %.

O=C(COc1cccc2c1C(=O)N(C1CCC(=O)NC1=O)C2=O)NCCCCOc1ccc(C(=C2C3CC4CC(C3)CC2C4)c2ccc(O)cc2)cc1 (stereo not drawn) [Example 15]    82
O=C(NCCCCOc1ccc(Oc2c(-c3ccc(O)cc3)sc3cc(O)ccc23)cc1)[C@H]1CC[C@H](C(F)(F)F)CC1 [Example 17]    94

Value lookup for inhibition at 1 µM; key = CC12CC3CC(C)(C1)CC(C(=O)NCCCCOc1ccc(C(=C4C5CC6CC(C5)CC4C6)c4ccc(O)cc4)cc1)(C3)C2 [Example 7] 77

====

Assign RBA (estradiol = 100) to each entry below.
- target: full length human estrogen receptor a (Homo sapiens)
- Construct: purified, full-length human estrogen receptor a from Invitrogen; purchased Invitrogen
- Sequence (P03372 1-595): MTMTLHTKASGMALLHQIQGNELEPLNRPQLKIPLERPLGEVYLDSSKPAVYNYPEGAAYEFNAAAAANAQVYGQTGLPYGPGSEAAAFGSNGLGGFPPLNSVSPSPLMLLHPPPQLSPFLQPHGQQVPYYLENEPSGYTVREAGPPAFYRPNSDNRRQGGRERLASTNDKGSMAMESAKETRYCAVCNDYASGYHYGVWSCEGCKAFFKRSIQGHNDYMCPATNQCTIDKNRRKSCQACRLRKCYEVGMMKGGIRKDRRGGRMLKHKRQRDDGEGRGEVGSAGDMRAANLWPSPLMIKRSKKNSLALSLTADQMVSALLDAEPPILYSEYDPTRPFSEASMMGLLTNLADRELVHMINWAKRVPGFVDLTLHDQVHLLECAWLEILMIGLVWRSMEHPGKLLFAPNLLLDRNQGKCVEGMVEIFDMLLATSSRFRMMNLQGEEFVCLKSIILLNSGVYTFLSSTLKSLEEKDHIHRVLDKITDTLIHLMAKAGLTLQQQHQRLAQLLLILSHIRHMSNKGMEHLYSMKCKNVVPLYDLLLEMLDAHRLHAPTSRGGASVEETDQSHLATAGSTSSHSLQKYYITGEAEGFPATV
- test_protocol: Competitive radiometric binding assay (RBA), tritiated estradiol tracer
- details: relative to estradiol = 100; average SD of 2-3 determinations
Give bare numbers.

CC(C)(C)OC(=O)N[C@@H](Cc1ccccc1)C(=O)NCCCCOc1ccc(C(=C2C3CC4CC(C3)CC2C4)c2ccc(O)cc2)cc1    14
O=C(NCCCCOc1ccc(C(=C2C3CC4CC(C3)CC2C4)c2ccc(O)cc2)cc1)[C@H]1CC[C@H](C(F)(F)F)CC1    10
CC12CC3CC(C)(C1)CC(C(=O)NCCCCOc1ccc(C(=C4C5CC6CC(C5)CC4C6)c4ccc(O)cc4)cc1)(C3)C2    6.0
O=C(NCCCCOc1ccc(C(=C2C3CC4CC(C3)CC2C4)c2ccc(O)cc2)cc1)C1CCCCC1    28
O=C(NCCCCOc1ccc(C(=C2C3CC4CC(C3)CC2C4)c2ccc(O)cc2)cc1)[C@H]1C[C@@H]2C=C[C@H]1C2    37
O=C(NCCCCOc1ccc(C(=C2C3CC4CC(C3)CC2C4)c2ccc(O)cc2)cc1)C1CCC(F)(F)CC1    30
CC(C)C[C@H](NC(=O)OC(C)(C)C)C(=O)NCCCCOc1ccc(C(=C2C3CC4CC(C3)CC2C4)c2ccc(O)cc2)cc1    14
CC(C)(C)OC(=O)N[C@@H](Cc1c[nH]c2ccccc12)C(=O)NCCCCOc1ccc(C(=C2C3CC4CC(C3)CC2C4)c2ccc(O)cc2)cc1    20
O=C(NCCCCOc1ccc(C(=C2C3CC4CC(C3)CC2C4)c2ccc(O)cc2)cc1)C1CCCCCC1    30
O=C(NCCCCOc1ccc(C(=C2C3CC4CC(C3)CC2C4)c2ccc(O)cc2)cc1)C12CC3CC(CC(C3)C1)C2    11

// batch mode: one RBA (estradiol = 100) value per listed entry
1. O=C(NCCOc1ccc(C(=C2C3CC4CC(C3)CC2C4)c2ccc(O)cc2)cc1)C12CC3CC(CC(C3)C1)C2
2. O=C(NCCCOc1ccc(C(=C2C3CC4CC(C3)CC2C4)c2ccc(O)cc2)cc1)C12CC3CC(CC(C3)C1)C2
3. O=C(NCCCCOc1ccc(C(=C2C3CC4CC(C3)CC2C4)c2ccc(O)cc2)cc1)C12CC3CC(CC1C3)C2

[21, 26, 17]

Value lookup for RBA (estradiol = 100); key = "O=C(NCCCCOc1ccc(C(=C2C3CC4CC(C3)CC2C4)c2ccc(O)cc2)cc1)C1CCC1" 70
